melting point reference
property: melting point

compound	property	observedMeasurement
COc1ccc(CNc2nc(CCCCC(=O)O)nc3sc(C)c(C)c23)cc1Cl	melting point	156 °C
Cc1ccc2cccc(OCc3c(Cl)ccc(S(=O)(=O)N4CCC[C@H]4C(=O)NCCCNC(=O)c4ccc(C#N)cc4)c3Cl)c2n1	melting point	78 to 80 °C
COc1cc2c(cc1OC)CN(CCCc1ccc(NC(=O)c3cccc4c(=O)c5cccc(OC)c5[nH]c34)cc1)CC2	melting point	135 °C
CCOCC(=Nc1ccc(Cl)cc1C(F)(F)F)n1ccnc1	melting point	49 to 52 °C
CNC(=O)/C(=N/OC)c1ccccc1CCl	melting point	72 to 74 °C
Cc1oc(-c2ccc(C(F)(F)F)cc2)nc1COc1cccc(Cn2oc(=O)[nH]c2=O)c1	melting point	142 to 143 °C
CC(C(=O)O)c1ccc(-c2ccc(O)cc2)c(F)c1 (centres undefined)	melting point	195 to 197 °C
O=P(O)(O)C1CC(c2ccc(F)cc2)=NO1 (centres undefined)	melting point	206 °C
COC(=O)c1c(-c2ccc(C)cc2)c2cc(OCc3ccccc3)ccc2c(=O)n1CC(C)C	melting point	142 to 143 °C

The reported numbers originate from a melting point compilation (Tetko et al.; mined from patent text by program, amines drawn as free bases though some values may be those of a salt).
